Listed below: melting point values for each entry.

{"molecule": "CC1(C)COC(c2ccc3c(c2)COC3=O)=N1", "observed": "109 to 111 °C"}
{"molecule": "Cc1cccc(NC(=O)NC2N=C(c3ccccc3)c3ccccc3N(C)C2=O)c1 (stereo unspecified)", "observed": "207 to 209 °C"}
{"molecule": "Brc1ccc(-c2ccncc2)cc1", "observed": "123 to 124 °C"}
{"molecule": "[N-]=[N+]=CC(=O)c1ccc(Br)c(S(N)(=O)=O)c1", "observed": "152 °C"}
{"molecule": "CCn1ncc2nc(C#N)c(OCCC(C)C)nc21", "observed": "78 to 80 °C"}
{"molecule": "COc1ccc(CSc2nnc(-c3ccc4ncsc4c3)o2)cc1C(F)(F)F", "observed": "145 to 146 °C"}
{"molecule": "NC(=O)C1CCc2ccccc21 (stereo unspecified)", "observed": "151 to 154 °C"}
{"molecule": "O=C(CNC(=O)[C@@H]1CCCN1)Nc1ccc([N+](=O)[O-])cc1C(=O)c1ccccc1", "observed": "165 to 167 °C"}

Task: Entry "CCCCCCCCCNC(=O)CCC(=O)O" has what melting point?
Output: 114 to 116 °C

Task: What value of measured melting point is listed for CC(C)C(=O)OC1c2nccnc2C(=O)N1c1ccc2ccc(Cl)nc2n1 (stereo unspecified) ?
Output: 260 to 262 °C

Task: Any idea what melting point was measured for CC(C)(C)CCNC(=O)c1coc(C2C3CCC(O3)C2Cc2ccccc2CCC(=O)O)n1 (stereo unspecified) ?
Output: 160 to 162 °C

Task: Tell me the measured melting point of "CN(C)S(=O)(=O)c1cn(C)c2ccccc2c1=O" , please.
Output: 225 to 226 °C

Task: Reported melting point, molecule "CC(=O)c1cc(-c2c(Cl)ccc(C(=O)O)c2Cl)n(C)n1" : ____
Output: 200 to 203 °C

Task: // query melting point value for entry NC(=O)COCCN1CCN(C(c2ccccc2)c2ccc(Cl)cc2)CC1 (single isomer, unassigned; (-))
Output: 94.3 °C

Task: Which melting point value belongs to "COC(=O)[C@@H](Cc1ccccc1)Oc1c(Br)cc(-c2c3ccccc3c(Br)c3sc4ccccc4c23)cc1Br" ?
Output: 138 to 140 °C

Task: Which melting point reading was recorded for the molecule "COc1ccc(-c2nc3cc(Cl)c(Cl)cc3n2C(=O)OCc2ccccc2)cc1N" ?
Output: 150 to 160 °C

Task: Data request, read-out melting point, for "c1cc(CCCn2ccnc2)cc(OCc2ccc3oc(-c4cccs4)nc3c2)c1"
Output: 86 to 87 °C

Where do the numbers come from? From a melting point compilation (Tetko et al.; mined from patent text by program, amines drawn as free bases though some values may be those of a salt).
